B1: FCHO1 (parent)
chain: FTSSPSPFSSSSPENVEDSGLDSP

Variants of: B1
Experiment: protein stability index of a GFP-peptide fusion (GPS, HEK-293T) (PSI 1-6); higher = more stable;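 note: lentivirally expressed fusions sorted by FACS into six bins by GFP to DsRed ratio, PSI derived from sequencing read proportions per bin multiplied by bin number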
Details: c terminus: a fixed tail appended
Classification field: enter true (1) for protein stability index values not below 2, false (0) for values below it.

Query: Is the recorded value of protein stability index equal to or greater than 2 for this variant? P13A
Response: false (0)

Query: Is the recorded value of protein stability index equal to or greater than 2 for this variant? S23I
Response: false (0)

Query: Is the recorded value of protein stability index equal to or greater than 2 for this variant? F8T
Response: true (1)

Query: Is the recorded value of protein stability index equal to or greater than 2 for this variant? D22S
Response: false (0)

Query: Is the recorded value of protein stability index equal to or greater than 2 for this variant? N15H
Response: false (0)

Query: Is the recorded value of protein stability index equal to or greater than 2 for this variant? L21F
Response: true (1)

Query: Is the recorded value of protein stability index equal to or greater than 2 for this variant? F8V
Response: true (1)

Query: Is the recorded value of protein stability index equal to or greater than 2 for this variant? D18V
Response: false (0)

Query: Is the recorded value of protein stability index equal to or greater than 2 for this variant? S9L
Response: true (1)

Query: Is the recorded value of protein stability index equal to or greater than 2 for this variant? S23W
Response: true (1)

Query: Is the recorded value of protein stability index equal to or greater than 2 for this variant? S19L
Response: true (1)

Query: Is the recorded value of protein stability index equal to or greater than 2 for this variant? P13V
Response: true (1)

Query: Is the recorded value of protein stability index equal to or greater than 2 for this variant? F1Q
Response: true (1)

Query: Is the recorded value of protein stability index equal to or greater than 2 for this variant? S6D
Response: true (1)

Query: Is the recorded value of protein stability index equal to or greater than 2 for this variant? G20M
Response: true (1)

Query: Is the recorded value of protein stability index equal to or greater than 2 for this variant? P24D
Response: false (0)

Query: Is the recorded value of protein stability index equal to or greater than 2 for this variant? S10Q
Response: false (0)

Query: Is the recorded value of protein stability index equal to or greater than 2 for this variant? S19Q
Response: true (1)

Query: Is the recorded value of protein stability index equal to or greater than 2 for this variant? P13Q
Response: true (1)
